Assay Details: self-splicing fitness, log relative to wild type (ln ratio); higher = more splicing; Tetrahymena group I intron in knt gene, E. coli kanamycin selection, DiMSum; sequences stand for … in CUCUCU…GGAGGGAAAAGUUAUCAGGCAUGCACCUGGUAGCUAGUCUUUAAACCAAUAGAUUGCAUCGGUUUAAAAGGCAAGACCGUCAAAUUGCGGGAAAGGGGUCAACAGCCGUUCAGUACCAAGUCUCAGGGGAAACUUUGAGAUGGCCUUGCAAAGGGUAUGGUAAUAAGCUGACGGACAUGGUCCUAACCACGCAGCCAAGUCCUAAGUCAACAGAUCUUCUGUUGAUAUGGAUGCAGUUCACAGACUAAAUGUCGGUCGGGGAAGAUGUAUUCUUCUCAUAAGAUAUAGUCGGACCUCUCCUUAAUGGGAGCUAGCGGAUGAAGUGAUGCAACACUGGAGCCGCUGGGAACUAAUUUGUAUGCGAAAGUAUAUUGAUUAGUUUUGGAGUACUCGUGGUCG;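 further: selection with 25 µg/mL kanamycin versus none on LB agar overnight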
Applied Conditions: 37 °C
Decide by self-splicing fitness (ln): equal to or exceeding -2 means Satisfied, less means Not satisfied.

Challenge: Decide: self-splicing fitness (ln) of AAACAGCAAUAUUACGAUAC >= -2?
Response given: Satisfied

Challenge: Decide: self-splicing fitness (ln) of CGCAAGCAAUAUUACGUCUA >= -2?
Response given: Satisfied

Challenge: Decide: self-splicing fitness (ln) of CAUUAGCAAUAUUACGAUCU >= -2?
Response given: Not satisfied

Challenge: Decide: self-splicing fitness (ln) of UAAGAGCAAUAUUACGGUUG >= -2?
Response given: Satisfied

Challenge: Decide: self-splicing fitness (ln) of AAACAGCAAUAUUACGGAAA >= -2?
Response given: Satisfied

Challenge: Decide: self-splicing fitness (ln) of UAUUAGCAAUAUUACGACCC >= -2?
Response given: Satisfied

Challenge: Decide: self-splicing fitness (ln) of GAAGAGCAAUAUUACGUAAG >= -2?
Response given: Satisfied

Challenge: Decide: self-splicing fitness (ln) of AUGUAGCAAUAUUACGUCAG >= -2?
Response given: Not satisfied

Challenge: Decide: self-splicing fitness (ln) of CAAAAGCAAUAUUACGAUUC >= -2?
Response given: Satisfied

Challenge: Decide: self-splicing fitness (ln) of CCGGAGCAAUAUUACGGCUC >= -2?
Response given: Not satisfied

Challenge: Decide: self-splicing fitness (ln) of GCCAAGCAAUAUUACGCUCG >= -2?
Response given: Satisfied

Challenge: Decide: self-splicing fitness (ln) of GCAGAGCAAUAUUACGCGGA >= -2?
Response given: Not satisfied

Challenge: Decide: self-splicing fitness (ln) of UGAAAGCAAUAUUACGCGGG >= -2?
Response given: Satisfied

Challenge: Decide: self-splicing fitness (ln) of GACCAGCAAUAUUACGAACA >= -2?
Response given: Satisfied

Challenge: Decide: self-splicing fitness (ln) of CUAGAGCAAUAUUACGUCGG >= -2?
Response given: Satisfied

Challenge: Decide: self-splicing fitness (ln) of AACGAGCAAUAUUACGCCAU >= -2?
Response given: Satisfied

Challenge: Decide: self-splicing fitness (ln) of CGGUAGCAAUAUUACGCGAU >= -2?
Response given: Not satisfied

Challenge: Decide: self-splicing fitness (ln) of CCUCAGCAAUAUUACGUAAG >= -2?
Response given: Satisfied

Challenge: Decide: self-splicing fitness (ln) of GUCUAGCAAUAUUACGCUUA >= -2?
Response given: Satisfied

Challenge: Decide: self-splicing fitness (ln) of GUCUAGCAAUAUUACGGGUA >= -2?
Response given: Satisfied

Challenge: Decide: self-splicing fitness (ln) of UCCCAGCAAUAUUACGAAGC >= -2?
Response given: Satisfied

Challenge: Decide: self-splicing fitness (ln) of AACGAGCAAUAUUACGCUUC >= -2?
Response given: Satisfied

Challenge: Decide: self-splicing fitness (ln) of UGGCAGCAAUAUUACGACUG >= -2?
Response given: Satisfied

Challenge: Decide: self-splicing fitness (ln) of CACAAGCAAUAUUACGGGUC >= -2?
Response given: Not satisfied

Challenge: Decide: self-splicing fitness (ln) of AGCAAGCAAUAUUACGGUAC >= -2?
Response given: Not satisfied

Challenge: Decide: self-splicing fitness (ln) of UCCAAGCAAUAUUACGACUC >= -2?
Response given: Not satisfied

Challenge: Decide: self-splicing fitness (ln) of GACAAGCAAUAUUACGCGAC >= -2?
Response given: Satisfied

Challenge: Decide: self-splicing fitness (ln) of AUGGAGCAAUAUUACGGGUC >= -2?
Response given: Not satisfied

Challenge: Decide: self-splicing fitness (ln) of GACAAGCAAUAUUACGUCCG >= -2?
Response given: Not satisfied

Challenge: Decide: self-splicing fitness (ln) of GAGUAGCAAUAUUACGCAGC >= -2?
Response given: Not satisfied

Challenge: Decide: self-splicing fitness (ln) of GUAGAGCAAUAUUACGAUCU >= -2?
Response given: Satisfied

Challenge: Decide: self-splicing fitness (ln) of CAUCAGCAAUAUUACGUAGG >= -2?
Response given: Satisfied

Challenge: Decide: self-splicing fitness (ln) of AUAUAGCAAUAUUACGCUGG >= -2?
Response given: Satisfied

Challenge: Decide: self-splicing fitness (ln) of UCUGAGCAAUAUUACGAUAC >= -2?
Response given: Not satisfied
